Test system: SW-620
measurement-protocol: Cytotoxicity against human SW620 cells assessed as cell viability after 24 hrs by MTT assay
Format: functional, cell-based
assay-conditions: SW-620, 24 h

[
  {
    "substance-smiles": "CC1=CC(=O)c2c(O)cccc2C1=O",
    "IC50 (µM)": 7.7
  }
]
